Tested on: K86415-001-R-J1-PDC complex spheroids, viability;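 further: spheroids exposed to agents for seven days before readout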
Assay: Anticancer human tumor K86415-001-R-J1-PDC patient-derived lung adenocarcinoma cell line growth inhibition [RAS]; active means viability on the fitted dose curve at most 10% of control; inactive means the rest
Conditions: compound 10 µM
Parameter call: string, one of class 1 (active), class 0 (inactive)

**Query** Which outcome did this test record for the compound CC(Nc1ccc2c(c1)OCCn1cc(N3C(=O)OCC3C(F)F)nc1-2)C(N)=O (centres undefined) ?
**Result** class 0

**Query** // repeat for CC(C)NCC(C(=O)N1CCN(c2ncnc3c2C(C)CC3O)CC1)c1ccc(Cl)cc1 (centres undefined) and report
**Result** class 0

**Query** // repeat for C[C@@H](NC(=O)c1ncnc(N)c1Cl)c1ncc(C(=O)Nc2cc(C(F)(F)F)c(Cl)cn2)s1 and report
**Result** class 0

**Query** // repeat for NC1c2ccccc2OC12CCN(c1cnc3c(N4CCCc5ncccc54)n[nH]c3n1)CC2 (centres undefined) and report
**Result** class 0

**Query** // repeat for CC(=O)OC12COC1CC(O)C1(C)C(=O)C(O)C3=C(C)C(OC(=O)C(O)C(NC(=O)OC(C)(C)C)c4ccccc4)CC(O)(C(OC(=O)c4ccccc4)C21)C3(C)C (centres undefined) and report
**Result** class 0

**Query** // repeat for CCC(CC)c1cc(NC2CCC(N)C2)n2nccc2n1 (centres undefined) and report
**Result** class 1

**Query** // repeat for C#Cc1c(F)ccc2cc(O)cc(-c3ncc4c(N5CC6CCC(C5)N6)nc(OCC56CCCN5CC(F)C6)nc4c3F)c12 (centres undefined) and report
**Result** class 0

**Query** // repeat for Cc1nc(N2CCC3(CC2)COC(C)C3N)c(CO)nc1Sc1ccnc(N)c1Cl (centres undefined) and report
**Result** class 0
